Biological target: hP2Y6R (Homo sapiens)
Construct: expressed in transfected cells
Assay: UDP (100 nM)-induced Ca2+ mobilization in hP2Y6R stably transfected 1321N1 astrocytoma cells
Format: cell-based
Conditions: UDP 100 nM; 3–4 independent triplicate determinations; read-out: IC50, hP2Y6R (Mean ± SEM)
pIC50: −log10 of the molar value.
Threshold check on pIC50: at or above 6 gives 1, strictly below gives -1.

| Compound | Assigned Label |
| --- | --- |
| CC(C)(C)OC(=O)NCCCCCCCC#Cc1ccc2c(c1)C=C([N+](=O)[O-])C(C(F)(F)F)O2 (centres unmarked) | 1 |

Could you tell me if the measured pIC50 of O=[N+]([O-])C1=Cc2ccccc2OC1C(F)(F)F (centres unmarked) [Compound 2a, reference compound] reaches 6 or more?
-1

Form field: pIC50 at least 6? Entry: CC(C)(C)OC(=O)NCCCCCCCCC#Cc1cccc2c1OC(C(F)(F)F)C([N+](=O)[O-])=C2 (centres unmarked)
-1

Tell me whether pIC50 is at least 6 here: NCCCCCCC#Cc1ccc2c(c1)C=C([N+](=O)[O-])C(C(F)(F)F)O2 (centres unmarked)
-1

###

Could you please report measured pIC50 for the items listed next?
Molecular target: hP2Y6R (Homo sapiens, UniProt Q15077)
Construct: expressed in transfected cells
Sequence (Q15077 whole entry): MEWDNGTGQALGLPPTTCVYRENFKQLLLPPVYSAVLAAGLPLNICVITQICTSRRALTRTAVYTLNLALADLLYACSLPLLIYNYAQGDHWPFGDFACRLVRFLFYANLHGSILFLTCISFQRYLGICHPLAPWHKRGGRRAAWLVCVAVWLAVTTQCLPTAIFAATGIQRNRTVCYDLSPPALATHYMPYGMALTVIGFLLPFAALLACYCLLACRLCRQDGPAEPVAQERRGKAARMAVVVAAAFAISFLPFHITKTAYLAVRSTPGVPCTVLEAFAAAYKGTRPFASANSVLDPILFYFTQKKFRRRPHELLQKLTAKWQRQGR
Assay: UDP (100 nM)-induced Ca2+ mobilization in hP2Y6R stably transfected 1321N1 astrocytoma cells
Format: cell-based
Settings: UDP 100 nM; 3–4 independent triplicate determinations; read-out: IC50, hP2Y6R (Mean ± SEM)
Answers are plain numbers, as −log10 of the molar value.

Return reported pIC50 values for all items listed beneath this line.
1. CC(C)(C)OC(=O)NCCC#Cc1ccc2c(c1)C=C([N+](=O)[O-])C(C(F)(F)F)O2 (centres unmarked) [Compound 20]
2. NCCC#Cc1ccc2c(c1)C=C([N+](=O)[O-])C(C(F)(F)F)O2 (centres unmarked) [Compound 21]

6.23
4.65

###

Target: hP2Y6R (Homo sapiens, UniProt Q15077)
Construct: expressed in transfected cells
Experiment: UDP (100 nM)-induced Ca2+ mobilization in hP2Y6R stably transfected 1321N1 astrocytoma cells
Type: cell-based
Conditions: UDP 100 nM; 3–4 independent triplicate determinations; read-out: IC50, hP2Y6R (Mean ± SEM)
Measured Parameter: IC50 (µM)
Numbers only, in µM.

# batch size: 4; output IC50 per entry
1. CC(C)(C)OC(=O)NCCCCCC#Cc1ccc2c(c1)C=C([N+](=O)[O-])C(C(F)(F)F)O2 (stereo not shown)
2. NCCCCCCCC#Cc1ccc2c(c1)C=C([N+](=O)[O-])C(C(F)(F)F)O2 (stereo not shown)
3. NCCCCC#Cc1ccc2c(c1)C=C([N+](=O)[O-])C(C(F)(F)F)O2 (stereo not shown)
4. CC(C)(C)OC(=O)NCCCCC#Cc1ccc2c(c1)C=C([N+](=O)[O-])C(C(F)(F)F)O2 (stereo not shown)

[1.19, 6.37, 5.39, 0.568]

###

Kindly state IC50 for each of the entries shown.
Target: hP2Y6R (Homo sapiens, UniProt Q15077)
Construct: expressed in transfected cells
Experiment: UDP (100 nM)-induced Ca2+ mobilization in hP2Y6R stably transfected 1321N1 astrocytoma cells
Assay type: cell-based
Settings: UDP 100 nM; 3–4 independent triplicate determinations; read-out: IC50, hP2Y6R (Mean ± SEM)
Give bare numbers, in µM.

| Molecule | Reading Unit | IC50 |
| --- | --- | --- |
| NCCCCCC#Cc1ccc2c(c1)C=C([N+](=O)[O-])C(C(F)(F)F)O2 (stereo not drawn) | µM | 12.4 |
| O=[N+]([O-])C1=Cc2cc(C#CCCCCCCCCBr)ccc2OC1C(F)(F)F (stereo not drawn) | µM | 14 |
| NCCCCCCCCC#Cc1ccc2c(c1)C=C([N+](=O)[O-])C(C(F)(F)F)O2 (stereo not drawn) | µM | 20 |
| CC(C)(C)OC(=O)NCCCCCCCC#Cc1cccc2c1OC(C(F)(F)F)C([N+](=O)[O-])=C2 (stereo not drawn) | µM | 4.96 |

Report IC50 for each item below.
1. CC[Si](C#Cc1ccc2c(c1)C=C([N+](=O)[O-])C(C(F)(F)F)O2)(CC)CC (stereo not drawn)
2. O=[N+]([O-])C1=Cc2cccc(C#CCCCCCCCCBr)c2OC1C(F)(F)F (stereo not drawn)
3. O=C(O)CCOCCOCCOCCOCC#Cc1ccc2c(c1)C=C([N+](=O)[O-])C(C(F)(F)F)O2 (stereo not drawn)

0.604
4.79
63.3

Lookup: IC50 / hP2Y6R (Homo sapiens, UniProt Q15077) / CC(C)(C)OC(=O)NCCCCCCC#Cc1ccc2c(c1)C=C([N+](=O)[O-])C(C(F)(F)F)O2 (stereo not drawn)
10.5
